Origin of the recorded values: paper PMC10399917

- TARGET OR TEST SYSTEM: TMPRSS2–SPIKE interaction (His-TMPRSS2 and SPIKE-FLAG) (Severe acute respiratory syndrome coronavirus 2, UniProt P0DTC2)
- PROTOCOL: biochemical
- Assay type: binding, SARS-CoV-2
- DETAILS: read-out: IC50, TR-FRET signal

{"COMPOUND": "N#C/C(=C/c1ccc(O)c(O)c1)C(=O)NCc1ccccc1 [AG-490]", "IC50": "~19 µM"}
{"COMPOUND": "CC(C)c1onc(-c2c(Cl)cccc2Cl)c1COc1ccc(/C=C/c2cccc(C(=O)O)c2)c(Cl)c1 [GW4064]", "IC50": "~7 µM"}
